Procedure text: soluble fraction after stress (log2 fold change); higher = more stays soluble; pooled small domains, quantitative proteomics
Measurement conditions: stress: pH 4
Consider the following sequences; for each one, report its soluble fraction (log2).
Answers are plain numbers.

Below: 3 sequences and their reported soluble fraction (log2).
For HMNTLTKEDIQKAIDVIPIDFKSVVILNLVEGFSYKETAEILEIPIGTVMSRLHRGRKILQKLLWEYSSSK the sequence record lists soluble fraction (log2) as -0.557

For HMNLPTSGVDALTPAERRVARMAGDGQSNREIAQTLFVTRKTVEIHLTSVYRKLGIASRAELSARL the sequence record lists soluble fraction (log2) as -0.59

For HMTPTRQATVSVAALNVREQPSLQGRRLGKLTQGTTLTVVGPPGEWLKIEYKGETGFVYASYTSLG the sequence record lists soluble fraction (log2) as -0.0723

For the 4 sequences below, give their soluble fraction (log2) values.
1. HMGYDSYDADTIPKLKIGSIVEHPKFGEGSIISKAGAEVTIAFKIKGVKKINLEYTSIKVLK
2. HMENHILIIDDDLMLLKTAEEILSDQYNVSVAKSGIQALNLLNKNIIPDLILLDIDMPQMDGYETL
3. HMDDLFGNAIEMFNNQRYDMTYELLVQLLSETPNNEKAWQLLADTKFMLGDYDDALHIVGKAAK
4. HMSVDVEGNQRIPTEQVLSELRDVGVSFGKRVSGLNADTIRNQMIINNDEIAWLGVNVRGSRVYVEITERI

result:
1. 0.117
2. -0.554
3. -1.36
4. -0.0219

---

Procedure text: soluble fraction after stress (log2 fold change); higher = more stays soluble; pooled small domains, quantitative proteomics
Measurement conditions: stress: pH 4
Label y when soluble fraction (log2) >= -0.4; otherwise n.

Example entries begin here.
query: I'd appreciate it if you could say whether HMDLIEVLAQDTIKKIYNTYVAYKNKVDVFYVAFSGGKDSIVTLDLVQRTLPHNEFKVLFGDTGM has soluble fraction (log2) at least equal to -0.4.
result: n

query: I'd appreciate it if you could say whether HMNILNYIIENENQEVRVDKFLSDTIEDMSRSSVASIIEDGGLLVNDKLQNKKYKLKIGDKVQFTVPDPV has soluble fraction (log2) at least equal to -0.4.
result: y

query: I'd appreciate it if you could say whether HMAPDGIEDKEGWLKVLPMITNLSIQMQNLQARGMDYEHIRNLLHETLLRYDDRIDSNLFIPNV has soluble fraction (log2) at least equal to -0.4.
result: y

query: I'd appreciate it if you could say whether HMNPYLWQRVRLLFSNVGVINNSATVDLVFSAPKGVLTEDLANNFSAALVKKGKEELGLDDIKITISVIPN has soluble fraction (log2) at least equal to -0.4.
result: n

query: I'd appreciate it if you could say whether HMSGHEVMVQRITAIIAELYQYGFVSRKKMMDEFNISERTLYRDLNRLGDRIVPDGDGIYRLAPAYA has soluble fraction (log2) at least equal to -0.4.
result: n

query: I'd appreciate it if you could say whether HMKFDVNAAIRAVLNVTVDKGATLERIMKETNLTSDQLVLPIALLMKTERLHFKRSGTHEVYVSVGKAPDK has soluble fraction (log2) at least equal to -0.4.
result: y

***
query: I'd appreciate it if you could say whether HMSDKLTLPVQINGVFRYTIEINPSMQKDEIIDLVKNEERTAKYKQDKEIKNVIVVPGKIVNIII has soluble fraction (log2) at least equal to -0.4.
result: y

query: I'd appreciate it if you could say whether HMEVGDTYLGKVTRVSSFGAFIEVLPGKEGLMRQNDAGEGGMPEVGDEVMVRVMEVDHLGRINLSGKLDD has soluble fraction (log2) at least equal to -0.4.
result: n

query: I'd appreciate it if you could say whether HMNVNTHKTLILNSTFQPLSLATPQRALALLFSKKINVLKESDIKLRSVGQSVAIPKVAVLTYFVKA has soluble fraction (log2) at least equal to -0.4.
result: y

query: I'd appreciate it if you could say whether HMNIDNTWQPSEDVVEILTRSGINEDFINELIPEFIVYWTERPGTLVSYNSKFIEHVRLKWAQHSAEI has soluble fraction (log2) at least equal to -0.4.
result: n

---

Procedure text: soluble fraction after stress (log2 fold change); higher = more stays soluble; pooled small domains, quantitative proteomics
Measurement conditions: stress: pH 4
Consider the following sequences; for each one, report its soluble fraction (log2).

Below: 3 sequences and their reported soluble fraction (log2).
For HMQFHQDNYALEFIRDLQPVDGAIILSRFKQFDLVELEKAKKIKFSDEHMAWTLYDYDIKKIN the sequence record lists soluble fraction (log2) as -1.82

For HMYLQKGISNGKVYLSIVHGYRDPVTKKVRRKTIRSLGYLEDLEKQYADPIKHFEAVVAKMNEEEALE the sequence record lists soluble fraction (log2) as 0.0302

For HMQARDQNVDEGKALLEKEFSRLALENLDRDKLANAVNYPTRDDMYAAIGAGDLRVGQVLHQAQQLF the sequence record lists soluble fraction (log2) as -0.323

For the 7 sequences below, give their soluble fraction (log2) values.
1. HMDVPTSSITEVKKSPMDVFAQARKAETGVYIFNREKIAGVMLTKEQYEALVEELNTLRDTL
2. HMTNATVGQIKKLARASILYGNSNLSGNRYTYKANTTVTILQNISSNVDKIRVNVTGRVAYIDNSNYSSST
3. HMLNPMILLTKGGENIRLDKFLSSHLSDLSRTQIQKMVKEGLVLVNGEPSKVGLKLDGSETIQYTLPK
4. HMSHDTLVYRLAQMLVKLNQGEKLDPQQLAEEFGVNLRTIQRDLNVRFAYLQLEKTDGRYHLDPTFL
5. HMRRQRNPEIFDQLVNKFHFTFTQTQQLKQLIKRWHMLFPGKSLKSAIQGYKSAKEILTYINDSLDVVE
6. HMEMKVIPFNQMTRDQFDQLDRFLGRLAAAQAMGSLRLTKAQQNYFLNQVKQLDLYRKRILN
7. HMENIIFDIGFHKGEDTLFYLLKGYRVIAVDADPDLINEWQNIFKKYIENGKLLLLNYVISDT

result:
-1.24
0.34
0.254
-0.241
0.0668
0.0144
-1.18

---

Procedure text: soluble fraction after stress (log2 fold change); higher = more stays soluble; pooled small domains, quantitative proteomics
Measurement conditions: stress: pH 4
Consider the following sequences; for each one, report its soluble fraction (log2).
Numbers only.

Below: 5 sequences and their reported soluble fraction (log2).
For HMGPASTGAHQLGLKPGDEVTHRAWGEGVVTSTTGEGDRAEAVVDFDAVGEKRLLLAWAPLER the sequence record lists soluble fraction (log2) as -0.705

For HMYKIDFAEGDRVIIKGGAFSGLRATVVSLHPEKGMAKIKVYMFGDRETLVDIEVSQLEKDK the sequence record lists soluble fraction (log2) as 0.113

For HMETKKEIIEAINELEEKYRNAIYLTSIEKLSYEETSKILGQSLSNTKNLIHRGKQQLRKILIKK the sequence record lists soluble fraction (log2) as -0.37

For HMVSAMLLHKKEILNLLAEEPEALHFASLLRAFGGRHIKNELKQIVDDLVRSGEILRLRGNRYTLPGADN the sequence record lists soluble fraction (log2) as -0.149

For HMKTYSEAQLKIALESLIENGKKQGYLTFQEINEILPDGIINTQDLKVIISILKETGIVVAKEKPEINIDV the sequence record lists soluble fraction (log2) as 0.273

For the 5 sequences below, give their soluble fraction (log2) values.
1. HMLFQGDTPAENIILEILSKNGTTASDSIIKQSGLSVSDFNQAATMLEIKGLISNNGGNIWSL
2. HMDVFTAKTASHIQELREKLGQQAVFGRSDVQNALGLKATRSSALLREMAEHGIIEPVTGYGKGRYHFRS
3. HMPLITLSAEIQSEQIGQRLDQTLAELFPEYSRSRLKTWIEADLVKLNNQIVNIPREKVLGGEHVEITVDI
4. HMKELVEDFASRISNARQSKGWNQSELAKRMAETVNVVKSAESGKSPTDSVIKKLERVLGIILM
5. HMKEQLITVYVSGAVARPGLYELPAGIRAQEAVEAAGGFTEAANHEKVNLAKKLKDGSQVNVPALK

result:
-0.254
0.361
-0.792
0.0723
-0.107

---

Procedure text: soluble fraction after stress (log2 fold change); higher = more stays soluble; pooled small domains, quantitative proteomics
Measurement conditions: stress: pH 4
Label Criterion met when soluble fraction (log2) >= -0.6; otherwise Criterion not met.

Example entries begin here.
query: I'd appreciate it if you could say whether HMSVKYLQIYHAIREKILSNEYAINQQLPDEITLTKEFNSSRMTVKKALDLLVSEGLIFRKRGQGTFVLSR has soluble fraction (log2) at least equal to -0.6.
result: Criterion met

query: I'd appreciate it if you could say whether HMSNSGFVKNNGKTEFYDASGRQAKSSWINISGKWYYFDLNGTMVTGWQRISNKWYYFLEDGSK has soluble fraction (log2) at least equal to -0.6.
result: Criterion met

query: I'd appreciate it if you could say whether HMSSVEEILQTLGGRIRTQRLAQGISQQVLADRAGLSLGAVRQLEGSGQSGLDTLVRVLFVLGIVDEL has soluble fraction (log2) at least equal to -0.6.
result: Criterion not met

query: I'd appreciate it if you could say whether HMTETPDDLLAALKKNKKAQATFDAFSPSNKKEYILWITEAKTEATRTKRLETAIEWMSEGKARNW has soluble fraction (log2) at least equal to -0.6.
result: Criterion met

query: I'd appreciate it if you could say whether HMQQPVVVQQNQTVRVVTGGPGFQVANEGRALNNGLAGQVVQVRLGNGQIISGIARAGGIVEIL has soluble fraction (log2) at least equal to -0.6.
result: Criterion met

query: I'd appreciate it if you could say whether HMNQIFAPMPGLVLEVKLSEGDVVAEGESAIILEAMKMENIIKSPINGIVKKVHVKKGQTIEKNTLIISFK has soluble fraction (log2) at least equal to -0.6.
result: Criterion not met

Alright, here's another sequence for you.
query: I'd appreciate it if you could say whether HMDNPYEVFIPNSYIGQRLDQTLASLFPQFSRSRLQNWLASGNLLVNGKIVKPKTKILGGEQINILDPYN has soluble fraction (log2) at least equal to -0.6.
result: Criterion met
